system: SW-620 colon; experiment: NCI-60 one-dose screen, 48 h; conditions: 10 µM unless noted
The panel holds about 83,000 compounds, 20% with a hit somewhere; the sample as a whole holds those more often. Active and inactive are the calls of the source. How the source made its calls: active means growth percent below 10; inactive means the rest.
Could you please pick one outcome from this set? active, inactive

What is the recorded call for this compound in the test? COc1ccc2c(c1)Oc1nc(N)c(C#N)c(N)c1C2Sc1ccc(O)cc1 (centres undefined)
inactive

What is the recorded call for this compound in the test? CCCn1c2cc(OCc3cn(-c4ccc(Cl)cc4)nn3)ccc2c2ccnc(C)c21
inactive

What is the recorded call for this compound in the test? COc1ccc2nc(-c3ccc(OC)c(OC)c3)cc(-c3nnc(SCC(=O)Nc4ccc(C(C)=O)cc4)o3)c2c1
inactive

What is the recorded call for this compound in the test? CC1(c2ccccc2Cl)NC(=O)NC1=O (centres undefined)
inactive

What is the recorded call for this compound in the test? O=C(O)CCNC1CCCCC1
inactive

What is the recorded call for this compound in the test? COc1cc(/C=C/C(=O)c2cccs2)ccc1OCc1ccc(Cl)nc1
inactive

What is the recorded call for this compound in the test? COCCOCCOCc1n(Cc2ccc3ccccc3c2)c2ccccc2[n+]1Cc1ccc2ccccc2c1
inactive

What is the recorded call for this compound in the test? CC(C)NS(=O)(=O)c1cccc(-c2ccc3c(=O)n(CCCN)c4c(c3c2)C(=O)c2ccccc2-4)c1
inactive

What is the recorded call for this compound in the test? Cc1cc2ccccc2c[n+]1CC(=O)c1ccc(-c2ccccc2)cc1
inactive

What is the recorded call for this compound in the test? COc1ccc(Sc2[nH]c(C(C)=O)c3ccccc23)cc1
inactive

What is the recorded call for this compound in the test? O=C(/C(=C/c1ccc([N+](=O)[O-])cc1)SCc1ccc(Cl)cc1)c1ccc(F)cc1
active

What is the recorded call for this compound in the test? COC(=O)/C=C1\SC(=Nc2cccc(Cl)c2)N(CCc2c[nH]c3ccccc23)C1=O
inactive

What is the recorded call for this compound in the test? CN(C)[C@@H]1C(=O)C(C(N)=O)=C(O)[C@@]2(O)C(=O)C3=C(O)c4c(O)cc(CN5CCc6ccccc6C5)c(Cl)c4C[C@H]3C[C@@H]12
active

What is the recorded call for this compound in the test? C=C(C)[C@@H]1CC[C@]2(C(=O)OCCOCCOCC[P+](c3ccccc3)(c3ccccc3)c3ccccc3)CC[C@]3(C)[C@H](CC[C@@H]4[C@@]5(C)CC[C@H](C)C(C)(C)[C@@H]5CC[C@]43C)[C@@H]12
active

What is the recorded call for this compound in the test? CCOC(=O)NC(Cc1ccccc1)c1ccccc1 (centres undefined)
inactive

What is the recorded call for this compound in the test? CCCn1cc(/C=N\N=C2\C(=O)Nc3ccc(C)cc32)c2ccccc21
inactive

What is the recorded call for this compound in the test? COc1ccc(C2CC(c3ccc(OC)cc3O)=NN2c2ccc(S(N)(=O)=O)cc2)cc1 (centres undefined)
inactive

What is the recorded call for this compound in the test? O=c1[nH]c(-c2cccc(F)c2)cc2cc(F)ccc12
inactive

What is the recorded call for this compound in the test? COc1ccc(-c2nc(C#N)c(NCC(c3ccco3)N3CCCC3)o2)cc1 (centres undefined)
inactive

Recorded values, source PubChem BioAssay (NCI).
